Overview of recorded SI (Selectivity index) for various compounds
Tested on: T. brucei strain 427 bloodstream forms
Assay: Anti-trypanosomal activity on T. brucei, resazurin dose response
Format: cell-based, Trypanosoma brucei
Conditions: relative to HEK293T and HepG2 cells vs T. brucei

[
  {
    "compound": "C=C1CO[C@H]2/C=C(\\C)CC[C@@H]3O[C@]3(C)CC/C=C(\\C)CC[C@@]12O [Compound 1, laevigatol B]",
    "SI (Selectivity index)": ">18.7"
  },
  {
    "compound": "CC(C)CCC[C@@H](C)[C@H]1CC[C@@H]2[C@]1(C)CC[C@@H]1[C@@]3(C)CC[C@H](O)C[C@@H]3[C@@H](C=O)[C@]12O [Compound 3, astropectenol A]",
    "SI (Selectivity index)": ">63.7"
  },
  {
    "compound": "N=C(N)c1ccc(OCCCCCOc2ccc(C(=N)N)cc2)cc1 [Pentamidine, reference compound]",
    "SI (Selectivity index)": "<26.7"
  },
  {
    "compound": "CC(C)CCC[C@@H](C)[C@H]1CC[C@H]2C3=C(CC[C@]12C)[C@@]1(C)CC[C@H](O)C[C@]1(O)[C@H](O)[C@H]3O [Compound 4, cholest-8-ene-3β,5α,6β,7α-tetraol]",
    "SI (Selectivity index)": ">6.8"
  },
  {
    "compound": "CC(C)[C@@H](C)CC[C@@H](C)[C@H]1CC[C@H]2[C@@H]3CCC4=CC(=O)CC[C@]4(C)[C@H]3CC[C@]12C [Compound 2, (24S)-ergost-4-ene-3-one]",
    "SI (Selectivity index)": ">18.3"
  }
]

====

Overview of recorded CC50 at 3 days for various compounds
Experiment: Cytotoxicity assay, resazurin, HEK293T
Assay type: cell-based, human
Settings: human, HEK293T cells; HEK293T, 3 days, highest concentration 100 µM; read-out: Cytotoxicity CC50 Values HEK293T
Experimental: HEK293T and HepG2 cells were cultured at 37 °C with 5% CO2 in Dulbecco’s modified eagle medium containing 10% FBS. […] To determine viability, 10.0 µL of a 280 µM solution of resazurin sodium salt in water was added to the cells in the assay plate for at least 5 h (final concentration, 40.0 µM of resazurin) and resazurin reduction was measured with a Victor 3^TM fluorimeter (PerkinElmer) at 530 nmEx/590 nmEm. […]
readout-name: CC50 at 3 days

[
  {
    "compound": "CN(C)CCCN1c2ccccc2Sc2ccc(Cl)cc21 [Chlorpromazine, reference compound]",
    "result": "19.9 µM"
  },
  {
    "compound": "CC(C)CCC[C@@H](C)[C@H]1CC[C@@H]2[C@]1(C)CC[C@@H]1[C@@]3(C)CC[C@H](O)C[C@@H]3[C@@H](C=O)[C@]12O",
    "result": "> 100 µM"
  },
  {
    "compound": "CC(C)[C@@H](C)CC[C@@H](C)[C@H]1CC[C@H]2[C@@H]3CCC4=CC(=O)CC[C@]4(C)[C@H]3CC[C@]12C [Compound 2, (24S)-ergost-4-ene-3-one]",
    "result": "> 100 µM"
  },
  {
    "compound": "N=C(N)c1ccc(OCCCCCOc2ccc(C(=N)N)cc2)cc1 [Pentamidine, reference compound]",
    "result": "< 0.4 µM"
  },
  {
    "compound": "C=C1CO[C@H]2/C=C(\\C)CC[C@@H]3O[C@]3(C)CC/C=C(\\C)CC[C@@]12O",
    "result": "> 100 µM"
  }
]
